Threshold 70 °C: flash point strictly smaller gives class 1, otherwise class 0.

CNC(C)Cc1ccccc1 (stereo unspecified)
class 1
CC(N)Cc1ccccc1 (stereo unspecified)
class 1
CN(C)C(=O)/N=N/C(=O)N(C)C
class 1
CCOP(=O)(OCC)OCC [triethyl phosphate]
class 0
Cc1ccc(C#N)cc1
class 0
C=CC1CC=CCC1 (stereo unspecified)
class 1
CCCCN(CCCC)CCCC
class 0

Incoming: Could you please tell me whether flash point recorded for `Brc1ccccc1` is less than 70 °C?
Outgoing: class 1

====

Please go through the items and note down their flash point.
Give bare numbers, in °C.

A selection of reference data follows.
CCC[CH2][Sn]([CH2]CCC)([CH2]CCC)[O]CC
104.00
C1CC[CH]([SnH]([CH]2CCCCC2)[CH]2CCCCC2)CC1 [TRICYCLOHEXYLTIN HYDRIDE]
105.00

Please state flash point for every molecule in the list that follows.
1. [CH3][Sn]([CH3])([CH3])[CH3]
2. CCCCCCCCCCC[CH2][Sn]([CH2]CCCCCCC)([CH2]CCCCCCC)[CH2]CCCCCCCCCCC
3. CCC[CH2][SnH]([CH2]CCC)[CH2]CCC [TRI-n-BUTYLTIN HYDRIDE]

Outgoing:
[-12.00, 198.00, 40.00]

====

Please go through the items and note down their flash point.
Numbers only, in °C.

A selection of reference data follows.
CC(CO)(CO)CO [2-(hydroxymethyl)-2-methylpropane-1,3-diol]
160.00
CCC(C)CC(O)CC (stereo not drawn)
54.00
C1=CCCCC1
-30.00
C/C=C\C [(z)-but-2-ene]
-73.00
CCCCCCCCCCCCCCO
145.00

Please state flash point for every compound in the list that follows.
1. COCCCl
2. COCC(C)O (stereo not drawn)
3. COc1ccccc1OC
4. OCCCCO
5. CCC(C)O (stereo not drawn)
6. CCCCCCO
7. CCCCOCCOCCOCCCC [1-[2-(2-butoxyethoxy)ethoxy]butane]
8. OCCCCCO

Outgoing:
15.00
33.00
72.00
121.11
22.22
73.89
101.00
129.44

====

Please go through the items and note down their flash point.
Numbers only, in °C.

A selection of reference data follows.
CCOC(C)=O [ethylacetate]
-4
CC#CCCCCCCC
53
C1CC[C@H]2CCCC[C@@H]2C1 [trans-decalin]
53
Cc1ccsc1
11
CCCC(C)(C)C(C)(C)C
31
CN(C)c1ccccc1
75
CCc1ccc(C)cc1C
57
CC(C)Cl
-32
CCCCCCCCCCCC
71
Cc1ccccc1F
12

Please state flash point for every molecule in the list that follows.
1. C=CCOC(=O)C(=C)C [allylmethacrylate]
2. COC(C)=O [methylacetate]
3. C1CCOC1 [tetrahydrofuran]
4. CC(C)CCc1ccccc1
5. CC#CCCCCCC
6. Cc1cccc(O)c1
7. C=CC=C(C)C

Outgoing:
[37, -13, -21, 62, 39, 86, -18]

Please state flash point for every molecule in the list that follows.
1. C=C(C)C(=O)OCCC [propylmethacrylate]
2. C#CCCCCCCC
3. OC1CCCCCC1
4. CCC(C)CC(C)(C)C (configuration not stated)
5. CCC(C)NC(C)CC (configuration not stated)
6. CCCCCCOC=O [hexylformate]
7. CCCCCC=O

Outgoing:
35
33
71
13
24
44
25

Please state flash point for every molecule in the list that follows.
1. Cc1ccccn1
2. CCCCC(C)CCC (configuration not stated)
3. C[C@@H]1CC(=O)C[C@H]1C (relative stereo) [trans-3,4-dimethylcyclopentanone]

Outgoing:
1: 26; 2: 22; 3: 41
